Tested on: HCC-2998 colon
assay_summary: NCI tumour cell line growth inhibition, 48 h
endpoint_label: TGI

1) C[n+]1c2ccccc2c(NC(CCCN=C(N)N)C(=O)O)c2ccccc21 (configuration not stated)    > 100 µM
2) O=c1cc(NNc2cccc(Cl)c2)[nH]c(=O)[nH]1    > 100 µM
3) COc1ccc(/C=N/N=C(\N)NO)c(OC)c1C    22.1 µM
4) COc1ccc2nc3cc(Cl)ccc3c(Sc3ccc(NC(C)=O)cc3)c2c1    5.93 µM
5) O=C1CC(=O)NC(=NN2C(=O)/C(=C/c3ccc(Cl)c(Cl)c3)N=C2c2ccccc2)N1    39.6 µM
6) CC(=O)OCCOCNC(=S)N/N=C/c1ccc([N+](=O)[O-])s1    > 100 µM
7) C[P+](C)(C)c1ccccc1    > 100 µM
8) COC(=O)N[C@H](C(=O)NC(OCc1ccccc1)C1COC(C)(C)O1)C(C)O[Si](C)(C)C(C)(C)C (some centres not stated)    > 100 µM
9) COC(=O)C(=O)CC(=O)c1cccc(OC)c1    > 100 µM
10) CN1CCCOC(c2ccc(Cl)cc2)O1 (configuration not stated)    > 100 µM
11) CCCn1cnc2c(SCc3ccc(Cl)cc3)nc(N)nc21    52.5 µM
12) C/C(=N\NC(=S)N1CCCC1)c1nc2ncccc2[nH]1    > 100 µM
13) NC(CCc1ncc(C(=O)O)s1)C(=O)O (configuration not stated)    > 100 µM
14) CCOC(=O)C(NC(=O)c1ccccc1)(N1CCN(c2cc3c(cc2F)c(=O)c(C(=O)O)cn3C2CC2)CC1)C(F)(F)F (configuration not stated)    38.6 µM
15) C=C1CCCCCCCCC/C=C/1SCCCSC    > 100 µM
16) Cc1ccc(NC(=O)C(=O)C2C(=O)NC(=O)NC2=O)cc1C    > 100 µM
17) CCc1nc(Cl)c(Cl)c(Cl)n1    > 100 µM
18) COc1ccc(-c2ccc(NNC(=O)c3ccc(F)cc3)nn2)cc1OC    > 100 µM
19) NC(N)=N/N=C(\N=Nc1ccccc1)c1ccc(Cl)cc1    4.68 µM
20) COC(=O)[C@]12CC[C@@H](C)[C@H](C)[C@@H]1C1=CC[C@@H]3[C@@]4(C)C(C=O)=C[C@@](C)(COC(=O)c5ccco5)[C@@H]4[C@H](O)C[C@@]3(C)[C@]1(C)CC2    3.71 µM
21) O=C(CCN1CCOCC1)Nc1cccc(-n2cc(-c3ccncc3)c(-c3ccc(Cl)c(O)c3)n2)c1    17.3 µM
22) CC1CC(Nc2ccc(Br)cc2)N(C(=O)c2ccc(Br)cc2)O1 (configuration not stated)    > 10 µM

* * *

Measured GI50 values are reported for all entries that follow.
Tested on: PC-3 prostate
assay_summary: NCI tumour cell line growth inhibition, 48 h
endpoint_label: GI50

1) O=C(N/N=C/c1ccc(O)cc1O)c1cccnc1    4.14 µM
2) O=C1/C(=C/N2N=C(c3ccc4ccccc4c3)CC2c2ccccc2O)SC(=S)N1c1cccnc1 (centres undefined)    0.518 µM
3) CNC(C)[C@H]1CCC2C3CC=C4C(=O)[C@@H](NC(=O)C=C(C)C)CC[C@]4(C)C3CC[C@@]21C (some centres undefined)    1.9 µM
4) Oc1ccc(Oc2cnc3ccccc3n2)cc1    54.7 µM
5) COC(=O)[C@]12CC[C@@H](C)[C@H](C)[C@@H]1C1=CC[C@@H]3[C@@]4(C)C(C=O)=C[C@@](C)(COC(=O)c5ccco5)[C@@H]4[C@H](O)C[C@@]3(C)[C@]1(C)CC2    1.29 µM
6) N#CC(C#N)=C1CCCOc2c1ccc1ccccc21    39.8 µM
7) CN1C(NNC(=O)c2cccnc2)=NS(=O)(=O)c2cc(Cl)ccc21    > 100 µM
8) COc1ccc2c(c1)c(-c1nc(-c3c[nH]c4ncccc34)cs1)cn2CCCCN1CCCCC1    1.52 µM
9) C=CCn1c(SCC(=O)Nc2ccc(C(=O)/C=C/c3cc(OC)c(OC)c(OC)c3)cc2)nnc1-c1ccc(OC)cc1    0.642 µM
